FYI, the data here is from patent US12226490B2.

So I've got a bunch of molecules here, and I need their Biacore human ROR1-Fz kd values.
target: T1, human ROR1-Fz (Homo sapiens, UniProt Q01973); assay: Biacore off-rate and kinetic analysis, ROR1 frizzled domain; format: binding; details: Table 11 (SP34 light chain)
T1 construct: Frizzled (Fz, residues 165-305); HIS6 (C); purchased Acro Biosystems; host or cells: HEK293
T1 sequence (Q01973 165-305): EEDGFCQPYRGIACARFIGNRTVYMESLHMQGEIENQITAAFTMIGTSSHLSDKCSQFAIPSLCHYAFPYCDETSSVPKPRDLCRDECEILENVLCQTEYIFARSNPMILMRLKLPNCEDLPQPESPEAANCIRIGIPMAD
One number for each entry, in s⁻¹.

molecule: SRP2196-A10 (antibody, V domains shown) VH: EVQLVESGGGLVQPGGSLRLSCAASGFNITGYYIHWVRQAPGKGLEWVGYISPNSGATHYADSVKGRFTISADISKNTAYLQMNSLRAEDTAVHYCARDSRRYVRSWDYWGQGTLVTVSS VL: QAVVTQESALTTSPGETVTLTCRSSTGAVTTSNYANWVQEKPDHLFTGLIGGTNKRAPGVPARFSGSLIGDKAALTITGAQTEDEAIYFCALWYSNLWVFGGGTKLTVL
Biacore human ROR1-Fz kd (s⁻¹): 0.000479

Now for a further molecule.
Query string: I would be grateful if you could share the reported Biacore human ROR1-Fz kd for SRP2196-A04 (antibody, V domains shown) VH: EVQLVESGGGLVQPGGSLRLSCAASGFNISPYYIHWVRQAPGKGLEWVGQIYPISGHTYQADSVKGRFTISADTSKNTAYLQMNSLRAEDTAVYYCARESRRYVGPFGYWGQGTLVTVSS VL: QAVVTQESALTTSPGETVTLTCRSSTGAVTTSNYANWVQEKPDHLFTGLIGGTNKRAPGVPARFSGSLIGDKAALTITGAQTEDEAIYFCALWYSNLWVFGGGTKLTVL .
Result string: 0.000343
